# Tested on: Woodchuck hepatitis virus
# Experiment: Antiviral activity against woodchuck hepatitis virus infected woodchucks assessed as log reduction of serum viral DNA per ml of serum after 4 weeks
# Assay type: functional
Parameter Activity: see the listing below.
Recorded Metric: Activity

>>> observed_result("C=C1[C@H](CO)[C@@H](O)C[C@@H]1n1cnc2c(=O)[nH]c(N)nc21.O")
7
>>> observed_result("CC(=O)OCC(CCn1cnc2cnc(N)nc21)COC(C)=O")
1.4
>>> observed_result("Cc1cn([C@@H]2C[C@@H](O)[C@H](CO)O2)c(=O)[nH]c1=O")
7
>>> observed_result("Nc1ccn([C@@H]2CS[C@H](CO)O2)c(=O)n1")
2.5
>>> observed_result("Cc1cn([C@H]2O[C@@H](CO)[C@H](O)[C@H]2F)c(=O)[nH]c1=O")
8.2
>>> observed_result("Nc1ccn([C@H]2C[C@H](O)[C@@H](CO)O2)c(=O)n1")
2
>>> observed_result("CC(C)(C)C(=O)OCOP(=O)(COCCn1cnc2c(N)ncnc21)OCOC(=O)C(C)(C)C")
1.8
